Target: Delta-type opioid receptor (Homo sapiens)
Sequence (P41143 whole entry): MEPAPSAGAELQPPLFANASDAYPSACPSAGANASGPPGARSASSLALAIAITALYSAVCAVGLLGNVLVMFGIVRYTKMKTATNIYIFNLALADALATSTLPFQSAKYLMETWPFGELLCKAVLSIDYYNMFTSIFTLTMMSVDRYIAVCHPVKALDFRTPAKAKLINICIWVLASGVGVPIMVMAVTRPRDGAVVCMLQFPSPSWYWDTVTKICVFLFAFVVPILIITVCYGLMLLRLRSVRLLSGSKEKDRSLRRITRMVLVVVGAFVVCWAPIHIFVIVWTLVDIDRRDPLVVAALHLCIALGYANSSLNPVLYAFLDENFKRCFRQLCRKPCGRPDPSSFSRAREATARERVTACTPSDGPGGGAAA
Assay: Agonist activity at human delta opioid receptor expressed in HN9.10 cells assessed by [35S]GTP-gamma-S binding assay
Square brackets hold non-standard residues; d marks the D form. Peptide text beside a SMILES is read from it. * marks the point of attachment. OBzl(3,5-(CF3)2) = FC(F)(F)c1cc(CO*)cc(C(F)(F)F)c1
parameter-measured: EC50 (nM)

>>> recorded_number("CC(C)C[C@H](NC(=O)[C@@H]1CCCN1C(=O)[C@H](Cc1ccccc1)NC(=O)[C@H](Cc1ccccc1)NC(=O)CNC(=O)[C@@H](C)NC(=O)[C@@H](N)Cc1ccc(O)cc1)C(=O)N[C@@H](Cc1c[nH]c2ccccc12)C(=O)OCc1cc(C(F)(F)F)cc(C(F)(F)F)c1")
21
>>> recorded_number("CC(C)C[C@H](NC(=O)[C@@H]1CCCN1C(=O)[C@@H](Cc1ccccc1)NC(=O)[C@H](Cc1ccccc1)NC(=O)CNC(=O)[C@@H](C)NC(=O)[C@@H](N)Cc1ccc(O)cc1)C(=O)N[C@@H](Cc1c[nH]c2ccccc12)C(=O)OCc1cc(C(F)(F)F)cc(C(F)(F)F)c1")
17
>>> recorded_number("CCCC[C@H](NC(=O)[C@H](Cc1ccccc1)NC(=O)CNC(=O)[C@@H](C)NC(=O)[C@@H](N)Cc1ccc(O)cc1)C(=O)N1CCC[C@H]1C(=O)N[C@@H](CC(C)C)C(=O)N[C@@H](Cc1c[nH]c2ccccc12)C(=O)OCc1cc(C(F)(F)F)cc(C(F)(F)F)c1")
4
>>> recorded_number("CSCC[C@H](NC(=O)[C@H](Cc1ccccc1)NC(=O)CNC(=O)[C@@H](C)NC(=O)[C@@H](N)Cc1ccc(O)cc1)C(=O)N1CCC[C@H]1C(=O)N[C@@H](CC(C)C)C(=O)N[C@@H](Cc1c[nH]c2ccccc12)C(=O)OCc1cc(C(F)(F)F)cc(C(F)(F)F)c1")
2.9
>>> recorded_number("CC(C)C[C@H](NC(=O)[C@@H]1CCCN1C(=O)CNC(=O)[C@H](Cc1ccccc1)NC(=O)CNC(=O)[C@@H](C)NC(=O)[C@@H](N)Cc1ccc(O)cc1)C(=O)N[C@@H](Cc1c[nH]c2ccccc12)C(=O)OCc1cc(C(F)(F)F)cc(C(F)(F)F)c1 (H-Y[dA]GFGPLW-{OBzl(3,5-(CF3)2)})")
50
>>> recorded_number("CCCC[C@@H](C(=O)N1CCC[C@H]1C(=O)N[C@@H](CC(C)C)C(=O)N[C@@H](Cc1c[nH]c2ccccc12)C(=O)OCc1cc(C(F)(F)F)cc(C(F)(F)F)c1)N(C)C(=O)[C@H](Cc1ccccc1)NC(=O)CNC(=O)[C@@H](C)NC(=O)[C@@H](N)Cc1ccc(O)cc1")
360

Data credit: ChEMBL document CHEMBL1143706
